B1: TPR t1 (parent)
chain: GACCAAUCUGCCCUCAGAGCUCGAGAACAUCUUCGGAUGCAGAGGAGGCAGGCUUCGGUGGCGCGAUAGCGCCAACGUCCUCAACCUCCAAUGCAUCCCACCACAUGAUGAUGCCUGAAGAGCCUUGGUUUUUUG

- Variants of: B1
- Assay Explanation: polymerase ribozyme fitness, log enrichment relative to wild type (log ratio); higher = more active; in vitro selection for triplet polymerase activity
Endpoint Label: polymerase ribozyme fitness (log ratio)
Please give the numeric answer without any surrounding text.

Note polymerase ribozyme fitness (log ratio) for the variant shown: C56G C72G C115A -2.98

Note polymerase ribozyme fitness (log ratio) for the variant shown: C70G A83C -2.96

Note polymerase ribozyme fitness (log ratio) for the variant shown: A43U G44C G63A -2.96

Note polymerase ribozyme fitness (log ratio) for the variant shown: C20U C56A C73U U129G U130A -3
